assay: A549 NSCLC cell proliferation inhibitors – ATP luminescence, human non-small cell lung line, primary screen (AID 371); conditions: at 10 µM;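 further: compound exposure lasted 72 h before the ATP read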
Among all 3,300 compounds or so, about 280 (8.5%) were called active.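 How the source made its calls: active means mean growth inhibition over the two runs of 50% or more; inactive means mean growth inhibition under 50%.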 Shown is part of a subset that was picked to be rich in actives.
Answer with one of the outcomes given here: True = active, False = inactive

These solved cases illustrate the format of a correct answer.
COMPOUND	CLASSIFICATION
CCSc1nnc(NC(NC(=O)c2ccco2)(C(F)(F)F)C(F)(F)F)s1	False
C/C(=N\O)C1(C)N(O)C(C)(C)C(c2ccco2)=[N+]1[O-] (stereo not given)	False
CCCCSc1nnc2n(CCc3ccccc3)c(=O)c3c4c(sc3n12)COC(C)(C)C4	False
COC(=O)CSc1nc(-c2cccs2)ccc1C#N	False

Query :: What was the test verdict on CCOC(=O)CNC(=O)Nc1ccccc1C(=O)OC ?
Result :: False

Query :: What was the test verdict on CCCCCCCCCCCCCCCC(O)C(N)CO (stereo not given) ?
Result :: True

Query :: What was the test verdict on COC(=O)CSc1nc2c(c(=O)n(C)c(=O)n2C)n1CCC(C)C ?
Result :: False

Query :: What was the test verdict on CC(NC(=O)Nc1nnc(C(F)(F)F)s1)(C(F)(F)F)C(F)(F)F ?
Result :: False

Query :: What was the test verdict on Cc1ccc(-n2c(N)c(C(N)=O)sc2=S)cc1 ?
Result :: False

Query :: What was the test verdict on O=S1(=O)C[C@@H](N2CCOCC2)[C@H](N2CCOCC2)C1 ?
Result :: False

Query :: What was the test verdict on C=CCN(CC=C)c1nc2ccccc2nc1C(C#N)C(=O)OC(C)C (stereo not given) ?
Result :: False

Query :: What was the test verdict on CC(NCCC(c1ccccc1)c1ccccc1)c1ccccc1 (stereo not given) ?
Result :: True
